- Test: Clearance in human liver microsomes
- Assay type: ADME, Microsome
The label depends only on CLhep predicted: fulfilled if it is at least 0.2 L/h/kg, not fulfilled if it is smaller.

{"Compound": "c1cn2cc(-c3ccc4cn[nH]c4n3)nc(Nc3ccc(N4CCN(C5COC5)CC4)cc3)c2n1", "Assigned Label": "fulfilled"}
{"Compound": "OC[C@H]1CN(c2ccc(Nc3nc(-c4ccc5cn[nH]c5c4)cn4ccnc34)cc2)CCO1", "Assigned Label": "fulfilled"}
{"Compound": "Nc1cccc(-c2cn3ccnc3c(Nc3ccc(N4CCN(C5COC5)CC4)cc3)n2)n1", "Assigned Label": "not fulfilled"}
{"Compound": "C[C@@H]1CN(c2ccc(Nc3nc(-c4ccc5cn[nH]c5c4)cn4ccnc34)cc2)C[C@H](C)O1", "Assigned Label": "not fulfilled"}
{"Compound": "Nc1cncc(-c2cn3ccnc3c(Nc3ccc(N4CCN(C5COC5)CC4)cc3)n2)c1", "Assigned Label": "fulfilled"}
{"Compound": "c1cn2cc(-c3cnc4c(c3)NCCO4)nc(Nc3ccc(N4CCN(C5COC5)CC4)cc3)c2n1", "Assigned Label": "fulfilled"}
{"Compound": "c1cn2cc(-c3cnc4nc[nH]c4c3)nc(Nc3ccc(N4CCN(C5COC5)CC4)cc3)c2n1", "Assigned Label": "not fulfilled"}
{"Compound": "c1cn2cc(-c3ccc4cn[nH]c4c3)nc(Nc3ccc(N4CC5(CCOCC5)C4)cc3)c2n1", "Assigned Label": "fulfilled"}
{"Compound": "c1cn2cc(-c3ccc4cc[nH]c4n3)nc(Nc3ccc(N4CCN(C5COC5)CC4)cc3)c2n1", "Assigned Label": "fulfilled"}
{"Compound": "COCCN1CCN(c2ccc(Nc3nc(-c4ccc5cn[nH]c5c4)cn4ccnc34)cc2)CC1", "Assigned Label": "fulfilled"}
{"Compound": "c1cn2cc(-c3ccc4nc[nH]c4n3)nc(Nc3ccc(N4CCN(C5COC5)CC4)cc3)c2n1", "Assigned Label": "not fulfilled"}
{"Compound": "c1cn2cc(-c3ccc4nc[nH]c4c3)nc(Nc3ccc(N4CCN(C5COC5)CC4)cc3)c2n1", "Assigned Label": "not fulfilled"}
{"Compound": "c1cn2cc(-c3cnc4cc[nH]c4c3)nc(Nc3ccc(N4CCN(C5COC5)CC4)cc3)c2n1", "Assigned Label": "fulfilled"}
{"Compound": "Nc1cccc(-c2cn3ccnc3c(Nc3ccc(N4CCN(C5COC5)CC4)cc3)n2)c1", "Assigned Label": "fulfilled"}
{"Compound": "c1cn2cc(-c3ccc4c(c3)NCCO4)nc(Nc3ccc(N4CCN(C5COC5)CC4)cc3)c2n1", "Assigned Label": "fulfilled"}
{"Compound": "c1cn2cc(-c3ccc4cn[nH]c4c3)nc(Nc3ccc(N4CCN(C5COC5)CC4)cc3)c2n1", "Assigned Label": "not fulfilled"}
{"Compound": "Nc1cncc(-c2cn3ccnc3c(Nc3ccc(N4CCN(C5COC5)CC4)cc3)n2)n1", "Assigned Label": "not fulfilled"}
{"Compound": "c1cn2cc(-c3ccc4cn[nH]c4c3)nc(Nc3ccc(N4CCOCC4)cc3)c2n1", "Assigned Label": "fulfilled"}
{"Compound": "c1cn2cc(-c3cnc4cn[nH]c4c3)nc(Nc3ccc(N4CCN(C5COC5)CC4)cc3)c2n1", "Assigned Label": "not fulfilled"}
{"Compound": "O=S1(=O)CCN(c2ccc(Nc3nc(-c4ccc5cn[nH]c5c4)cn4ccnc34)cc2)CC1", "Assigned Label": "fulfilled"}
{"Compound": "CN(C)C[C@@H]1CN(c2ccc(Nc3nc(-c4ccc5cn[nH]c5c4)cn4ccnc34)cc2)CCO1", "Assigned Label": "fulfilled"}
{"Compound": "c1cn2cc(-c3ccc4c(n3)NCCO4)nc(Nc3ccc(N4CCN(C5COC5)CC4)cc3)c2n1", "Assigned Label": "fulfilled"}
{"Compound": "c1cn2cc(-c3ccc4cn[nH]c4c3)nc(Nc3ccc(N4CC5(COC5)C4)cc3)c2n1", "Assigned Label": "fulfilled"}
{"Compound": "c1cn2cc(-c3cnc4cn[nH]c4n3)nc(Nc3ccc(N4CCN(C5COC5)CC4)cc3)c2n1", "Assigned Label": "not fulfilled"}
{"Compound": "c1cn2cc(-c3ccc4cn[nH]c4c3)nc(Nc3ccc(N4C[C@@H]5C[C@H]4CO5)cc3)c2n1", "Assigned Label": "fulfilled"}
{"Compound": "c1cn2cc(-c3ccc4cn[nH]c4c3)nc(Nc3ccc(N4[C@H]5COC[C@@H]4COC5)cc3)c2n1", "Assigned Label": "fulfilled"}
{"Compound": "OC1CN(c2ccc(Nc3nc(-c4ccc5cn[nH]c5c4)cn4ccnc34)cc2)C1", "Assigned Label": "fulfilled"}
{"Compound": "c1cn2cc(-c3ccc4cn[nH]c4c3)nc(Nc3ccc(N4CC5CC(C4)O5)cc3)c2n1", "Assigned Label": "fulfilled"}
{"Compound": "c1cn2cc(-c3cnc4nc[nH]c4n3)nc(Nc3ccc(N4CCN(C5COC5)CC4)cc3)c2n1", "Assigned Label": "not fulfilled"}
{"Compound": "c1cn2cc(-c3cnc4c(n3)NCCO4)nc(Nc3ccc(N4CCN(C5COC5)CC4)cc3)c2n1", "Assigned Label": "not fulfilled"}
{"Compound": "c1cn2cc(-c3ccc4cn[nH]c4c3)nc(Nc3ccc(N4C[C@H]5CC[C@@H](C4)O5)cc3)c2n1", "Assigned Label": "fulfilled"}
{"Compound": "c1cn2cc(-c3ccc4cn[nH]c4c3)nc(Nc3ccc(N4CC5COCC5C4)cc3)c2n1 (stereo unspecified)", "Assigned Label": "fulfilled"}
{"Compound": "c1cn2cc(-c3ccc4cc[nH]c4c3)nc(Nc3ccc(N4CCN(C5COC5)CC4)cc3)c2n1", "Assigned Label": "fulfilled"}
{"Compound": "OC1CCN(c2ccc(Nc3nc(-c4ccc5cn[nH]c5c4)cn4ccnc34)cc2)CC1", "Assigned Label": "fulfilled"}
